The measurements presented in this section are drawn from PubChem BioAssay (NCI).

system: OVCAR-5 ovarian; test: NCI-60 one-dose screen, 48 h; conditions: 10 µM unless noted
About 83,000 compounds went through this panel and 20% of them were active in at least one assay; those are over-represented in the sample as a whole. Activity calls are given as the source filed them. The calls were made as follows: active = growth percent below 10; inactive = the rest.
Lab note: assign the record to one of active, inactive

compound | target.of.assay | group
CCN(CC)CCNc1ccc(Cl)cc1Cl | OVCAR-5 ovarian | inactive
CCN(CC)CCCNCCCNc1cc(OC)cc2cccnc12 | OVCAR-5 ovarian | inactive
COc1cc2c(c(OC)c1OC)CCc1cnoc1-2 | OVCAR-5 ovarian | inactive
C/C(=C\CCc1ccsc1)CC/C=C(\C)CCCN1CCC(CO)CC1 | OVCAR-5 ovarian | inactive
Clc1cccc(Cc2cn3cc(-c4ccccc4)nc3s2)c1 | OVCAR-5 ovarian | inactive
Cc1cc(C)n2nc(SCC(=O)Nc3sc4c(c3C(N)=O)CCC4)nc2n1 | OVCAR-5 ovarian | inactive

Now for a further compound.
What is the recorded call for this compound in the test? "COc1ccc2c(c1)C(=O)c1c-2c(=O)n(CCCCCCC(=O)NO)c2ccccc12" active
